assay_name: CD interaction of perfume components
Format: physicochemical
Design: key: cyclodextrin-compatible perfume materials (i.e. having weak CD interaction); cyclodextrin-incompatible enduring (hydrophobic) perfume materials (i.e. having significant or strong CD interaction); cyclodextrin-incompatible enduring (hydrophobic) perfume materials (i.e. having significant or strong CD interaction)
test_parameters: perfume component with cyclodextrin
measured_parameter: CD interaction

>>> df
                                   compound  measured_parameter  reported_result
0  CCCCCC1C(=O)CCC1CC(=O)OC (centres unmarked) [Methyl Dihydro Jasmonate]      CD interaction             weak
1  CC(=O)C(C)=C(C)C(C)C(C)(C)C (centres unmarked) [Koavone]      CD interaction           strong
2  CC(=O)OC1CC2CC1C1CC=CC21 (centres unmarked) [Flor Acetate]      CD interaction           strong
3  CCCCCCC(C=O)=Cc1ccccc1 [Hexyl cinnamic Aldehyde]      CD interaction             weak

Give a short answer stating reported CD interaction for CC(C)(O)CCCC1=CCC(C=O)CC1 (centres unmarked) [Lyral] . weak

Give a short answer stating reported CD interaction for CC(=O)OC1CCC(C(C)(C)C)CC1 (centres unmarked) [Vertenex, para-tert-butylcyclohexyl acetate] . strong

Give a short answer stating reported CD interaction for CCC(=O)OC1CC2CC1C1CC=CC21 (centres unmarked) [Frutene] . strong

Give a short answer stating reported CD interaction for CC(=O)C1(C)CC2=C(CCCC2(C)C)CC1C (centres unmarked) [Iso-E Super] . weak

Give a short answer stating reported CD interaction for CC(=O)/C=C/C1C(C)=CCCC1(C)C (centres unmarked) [a-ionone] . strong

Give a short answer stating reported CD interaction for O=C(Cc1ccccc1)OCCc1ccccc1 [Phenyl-Ethyl-Phenyl Acetate] . weak
